Give measured Kd for each item. Keep answers brief.
Target: T1, Hsa ETS-2 PNT (human), P15036
T1 chain: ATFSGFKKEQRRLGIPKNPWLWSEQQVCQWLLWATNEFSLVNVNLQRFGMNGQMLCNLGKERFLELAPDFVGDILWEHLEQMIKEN
Experiment: ITC; iTC200, 25°C, 20 mM sodium phosphate, pH 7.4, 150 mM NaCl; both partners dialysed against the same buffer
Note: a bare number is incomplete; add the unit.

BINDER	Kd
IPPNALQDLLRTLRSPSSPQQQQQVLNILKSNPQLMAAFIKQRAAKYQ (domain or fragment, modifications not checked) [1R/2R NCBD]	850 nM

Below: the item to evaluate.
Input: Give its Kd value. Item: IPPNALQDLLRTLKSPSSPQQQQQVLNILKSNPQLMAAFIKQRTAKYQ (domain or fragment, modifications not checked) [Fish/Tetrapod CREBBP NCBD]
Output: 1300 nM
